- assay-method-text: Plasma pharmacokinetics and brain uptake of antrafenine in mice (LC-MS)
- Type: in vivo, male C57BL/6 mice
- run-parameters: male, C57BL/6, mouse, brain parenchyma, iv, 3 mg/kg, IV 3 mg/kg, 4 h, n = 3; read-out: Brain Parenchyma Concentration Mean ± SD
reported-endpoint: concentration at 4 h (nM)

1) O=C(OCCN1CCN(c2cccc(C(F)(F)F)c2)CC1)c1ccccc1Nc1ccnc2cc(C(F)(F)F)ccc12 [antrafenine]: 13.9

* * *

- assay-method-text: Plasma pharmacokinetics and brain uptake of antrafenine in mice (LC-MS)
- Assay type: in vivo, male C57BL/6 mice
- run-parameters: male, C57BL/6, mouse, plasma, iv, 3 mg/kg, IV 3 mg/kg, 1 h, individual mice; read-out: Plasma Concentration Individual
reported-endpoint: concentration at 1 h (nM)

1. O=C(OCCN1CCN(c2cccc(C(F)(F)F)c2)CC1)c1ccccc1Nc1ccnc2cc(C(F)(F)F)ccc12 [antrafenine]: 282
